Cited source: patent US7384629B2

Recorded Growth mm-in-diam, on agar by entry
Test system: Hirsutella rhossiliensis
Assay: Effect of nitrogen source on growth, sporulation and spore germination
Conditions: nitrogen source 0.3296 g/L nitrogen; isolate OWVT-1; 5 weeks
Kindly provide the numeric value in mm-in-diam only, without the unit symbol.

For orientation, consider the following solved cases.
{"Compound": "O=C(O)[C@@H]1CCCN1", "U": "mm-in-diam", "Growth mm-in-diam, on agar": 23.8}
{"Compound": "NC(CO)C(=O)O (racemic)", "U": "mm-in-diam", "Growth mm-in-diam, on agar": 17.2}

Now turn to the next compound.
Exercise: Param item = NC(=O)C[C@H](N)C(=O)O ; retrieve measured Growth mm-in-diam, on agar.
Key: 20.8

----------
Test system: Hirsutella rhossiliensis
Conditions: named vitamin excluded; isolate OWVT-1
Readout: Spore germination %, on agar (%)
Kindly provide the numeric value in % only, without the unit symbol.

For orientation, consider the following solved cases.
{"Smiles notation": "Cc1cc2nc3c(=O)[nH]c(=O)nc-3n(C[C@H](O)[C@H](O)[C@H](O)CO)c2cc1C", "Assay result": 60.0}
{"Smiles notation": "Cc1ncc(C[n+]2csc(CCO)c2C)c(N)n1", "Assay result": 58.9}

Now turn to the next molecule.
Exercise: Param item = Nc1nc2ncc(CNc3ccc(C(=O)N[C@@H](CCC(=O)O)C(=O)O)cc3)nc2c(=O)[nH]1 ; retrieve measured Spore germination %, on agar.
Key: 61.1
